The values you see were collected from patent US20210238262A1.

# Target or system: T1, Recombinant DENV-2 sE (1-396) from strain 16681-PDK53 with C-terminal AviTag and poly-histidine tags (Dengue virus serotype 2 strain …, UniProt P29991 281-676, biotinylated on the AviTag for BLI)
# T1 construct: Produced in Expi293F cells; biotinylated for BLI; also called DENV-2 E
# Assay name: BLI and ELISA on DENV-2 E glycoprotein
Reported endpoint: binding result

>>> measurement("rhMZ124-D (antibody, V domains shown) VH: QVQLQESGPGLVKPSETLSLTCAVSGDSISSGYYWGWIRQSPGRGLESFGFISGSGGTTYYNPSLKTRVTISKDTSKNQFSLKLSSVTAADTAVYYCARLGHPRGIAAGGVDYWGQGVLVTVSS VL: QSALTQPPSLSASPGASARLPCTLSSDFSVGNKNMYWYQQKPGSAPGLFLYFYSDSDNQLGPGVPNRVSGSKEASSNTAFLLISGLQPEDEADYYCQVYDRAANILFGGGTRLTVLG")
"no binding"
>>> measurement("rhMZ133-C (antibody, V domains shown) VH: EVQLVESGGGLVQPGGSLRLSCAASGFTFSDYYMSWVRQAPGKGPEWVGFIRNKANGGTAEYAASVKGRFTVSRDDSKSIASLQMNSLKTEDTAVYYCAKHYCTGSGCYGAGLDSWGQGVVVTVSS VL: QSVLTQPPSVSKSLGQSVTISCTGTSSDIGGSNDVSWYQQHPGTAPRLLIYNVSKRPSGVSDRFSGSKSGNTASLTISGLQAEDEADYYCCSYRSGSTLFGGGTRLTVLG")
"no binding"
>>> measurement("rhMZ100-C (antibody, V domains shown) VH: EVQLVESGGGLVQPGGSLRLSCAASGFTFSSDGMSWVRQAPGKGLEWVSYISSGGATTYYADSVKGRFTISRDNSKNTLSLQMNSLRGEDTAVYYCAKDITAPGRNGLDSWGQGVVVTVSS VL: QSVLTQPPSLSASPGASARLPCTLSSDLNVGTKNMYWYQQKPGSAPRLFLYYYSDSDKQLGPGVPNRVSGSKETSSNTAFLLISGLQPEDEADYYCQVYDNSARVFGGGTRLTVLG")
"no binding"
